# TARGET_UNDER_TEST: T1, human GPRC5D protein (KACTUS, catalog number GPR-HM05P) (human, UniProt Q9NZD1 1-345, limits assumed)
# T1 construct: Bought reagent used as analyte in the Fortebio assay; the construct is not described
# METHOD: Fortebio BLI, antibody captured on AHC chip, human GPRC5D protein as analyte
This listing pairs binders with measured koff.

humanized antibody 6E97 (hz) (antibody, V domains shown) VH: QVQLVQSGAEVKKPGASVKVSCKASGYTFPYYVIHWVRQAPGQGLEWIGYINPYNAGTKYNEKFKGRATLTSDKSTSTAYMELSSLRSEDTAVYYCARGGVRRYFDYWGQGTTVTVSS VL: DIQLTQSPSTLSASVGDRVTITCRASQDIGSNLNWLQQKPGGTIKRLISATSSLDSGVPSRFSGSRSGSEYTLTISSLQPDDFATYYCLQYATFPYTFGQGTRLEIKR; 2.08e-05 s⁻¹

Per the records, this binder ( humanized antibody 9D7 (hz) (antibody, V domains shown) VH: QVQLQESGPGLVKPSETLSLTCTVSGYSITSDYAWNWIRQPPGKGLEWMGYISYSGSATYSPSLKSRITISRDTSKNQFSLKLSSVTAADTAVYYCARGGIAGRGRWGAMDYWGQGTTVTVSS VL: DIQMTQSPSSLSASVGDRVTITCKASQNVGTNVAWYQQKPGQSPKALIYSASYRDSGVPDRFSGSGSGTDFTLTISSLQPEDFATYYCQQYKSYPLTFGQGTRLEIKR ) has koff equal to < 1e-07 s⁻¹

koff measured on humanized antibody 24F5 (hz) (antibody, V domains shown) VH: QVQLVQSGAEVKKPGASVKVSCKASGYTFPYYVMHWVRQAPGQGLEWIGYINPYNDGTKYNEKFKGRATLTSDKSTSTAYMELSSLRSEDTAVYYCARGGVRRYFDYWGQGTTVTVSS VL: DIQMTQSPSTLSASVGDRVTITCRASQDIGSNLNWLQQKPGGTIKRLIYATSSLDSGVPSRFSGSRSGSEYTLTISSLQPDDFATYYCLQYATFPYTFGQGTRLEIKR = 5.42e-05 s⁻¹

The binder humanized antibody 26D1 (hz) (antibody, V domains shown) VH: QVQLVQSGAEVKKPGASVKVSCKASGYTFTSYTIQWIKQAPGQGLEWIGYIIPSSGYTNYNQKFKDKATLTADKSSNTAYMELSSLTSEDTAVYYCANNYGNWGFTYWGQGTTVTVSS VL: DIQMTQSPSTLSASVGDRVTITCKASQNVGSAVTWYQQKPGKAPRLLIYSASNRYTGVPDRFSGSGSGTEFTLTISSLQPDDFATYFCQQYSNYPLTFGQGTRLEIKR showed koff equal to 3.15e-05 s⁻¹
